Target: T1, recombinant human IgE (human, UniProt P01854-1 1-428)
T1 construct: made in-house (ALK); preloaded on immobilised FcεRIα in the displacement ELISA
T1 sequence (P01854 other isoform, or with tags, fused parts or gaps): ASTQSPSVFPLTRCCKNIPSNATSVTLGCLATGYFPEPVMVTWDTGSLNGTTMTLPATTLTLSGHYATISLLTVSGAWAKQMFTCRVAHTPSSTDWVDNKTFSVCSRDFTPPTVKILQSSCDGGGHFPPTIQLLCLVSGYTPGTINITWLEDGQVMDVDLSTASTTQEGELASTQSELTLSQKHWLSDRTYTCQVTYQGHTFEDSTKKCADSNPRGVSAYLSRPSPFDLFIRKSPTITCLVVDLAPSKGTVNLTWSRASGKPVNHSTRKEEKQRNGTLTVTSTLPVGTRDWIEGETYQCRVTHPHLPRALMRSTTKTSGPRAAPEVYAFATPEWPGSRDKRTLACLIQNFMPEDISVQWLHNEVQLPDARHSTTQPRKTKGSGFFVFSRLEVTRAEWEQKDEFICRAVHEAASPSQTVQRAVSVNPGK
Assay: IgE-FcεRIα displacement ELISA
RECORDED METRIC: EC50 (nM)
Report as a plain number; the unit nM is understood.

Some binders with recorded EC50:
# BINDER, EC50 (nM)
rows = [
    ("A1B2(G4S)4 (bispecific antibody) EVQLLESGGGLVQPGGSLRLSCAASGFTFGNYDMAWVRQAPGKRPEWVSSIDTGGDITHYADSVKGRFTISRDNAKNTLYLQMNSLRPEDTAVYWCATDEEYALGPNEFDYYGQGTLVTVSGGGGSGGGGSGGGGSGGGGSQVQLVESGGGLVQAGGSLRLSCAVFGSTFSNNVADWYRQAPGKQRELVARISASGATREYGDSVKGRFTISRDDAKNTMYLQMNNLKPEDTAVYRCHKIEWEDLSRKDYWGQGTQVTVS", 1.4),
    ("A1B1(G4S)3 (bispecific antibody) EVQLLESGGGLVQPGGSLRLSCAASGFTFGNYDMAWVRQAPGKRPEWVSSIDTGGDITHYADSVKGRFTISRDNAKNTLYLQMNSLRPEDTAVYWCATDEEYALGPNEFDYYGQGTLVTVSSGGGGSGGGGSGGGGSQVQLQESGGGLVQTGGSLRLSCAVHGRTFSNTGMGWFRQAPGNERQFVAIISPSGTSTYYADSVKGRFTISRDPAKNTVYLQMNSLKMDDTAVYYCAASYGSNWSTLRHQRRNEYDAWGQGTQVAVS", 0.6),
    ("A1B1(G4S)4 (bispecific antibody) EVQLLESGGGLVQPGGSLRLSCAASGFTFGNYDMAWVRQAPGKRPEWVSSIDTGGDITHYADSVKGRFTISRDNAKNTLYLQMNSLRPEDTAVYWCATDEEYALGPNEFDYYGQGTLVTVSGGGGSGGGGSGGGGSGGGGSQVQLQESGGGLVQTGGSLRLSCAVHGRTFSNTGMGWFRQAPGNERQFVAIISPSGTSTYYADSVKGRFTISRDPAKNTVYLQMNSLKMDDTAVYYCAASYGSNWSTLRHQRRNEYDAWGQGTQVAVS", 0.9),
]

Reported EC50 of A1B1(G4S)1 (bispecific antibody) EVQLLESGGGLVQPGGSLRLSCAASGFTFGNYDMAWVRQAPGKRPEWVSSIDTGGDITHYADSVKGRFTISRDNAKNTLYLQMNSLRPEDTAVYWCATDEEYALGPNEFDYYGQGTLVTVSSGGGGSQVQLQESGGGLVQTGGSLRLSCAVHGRTFSNTGMGWFRQAPGNERQFVAIISPSGTSTYYADSVKGRFTISRDPAKNTVYLQMNSLKMDDTAVYYCAASYGSNWSTLRHQRRNEYDAWGQGTQVAVS : 1

The recorded EC50 for entry B2A1(G4S)4 (bispecific antibody) QVQLVESGGGLVQAGGSLRLSCAVFGSTFSNNVADWYRQAPGKQRELVARISASGATREYGDSVKGRFTISRDDAKNTMYLQMNNLKPEDTAVYRCHKIEWEDLSRKDYWGQGTQVTVSGGGGSGGGGSGGGGSGGGGSEVQLLESGGGLVQPGGSLRLSCAASGFTFGNYDMAWVRQAPGKRPEWVSSIDTGGDITHYADSVKGRFTISRDNAKNTLYLQMNSLRPEDTAVYWCATDEEYALGPNEFDYYGQGTLVTVS equals 30
